TARGET_DESC: T1, human ASIC3a-eYFP (hASIC3a-eYFP) on transiently transfected CHO-K1 cells (human, UniProt Q9UHC3 1-531)
T1 construct: whole, on cells; not shown: eYFP fusion partner
T1 sequence (looked up): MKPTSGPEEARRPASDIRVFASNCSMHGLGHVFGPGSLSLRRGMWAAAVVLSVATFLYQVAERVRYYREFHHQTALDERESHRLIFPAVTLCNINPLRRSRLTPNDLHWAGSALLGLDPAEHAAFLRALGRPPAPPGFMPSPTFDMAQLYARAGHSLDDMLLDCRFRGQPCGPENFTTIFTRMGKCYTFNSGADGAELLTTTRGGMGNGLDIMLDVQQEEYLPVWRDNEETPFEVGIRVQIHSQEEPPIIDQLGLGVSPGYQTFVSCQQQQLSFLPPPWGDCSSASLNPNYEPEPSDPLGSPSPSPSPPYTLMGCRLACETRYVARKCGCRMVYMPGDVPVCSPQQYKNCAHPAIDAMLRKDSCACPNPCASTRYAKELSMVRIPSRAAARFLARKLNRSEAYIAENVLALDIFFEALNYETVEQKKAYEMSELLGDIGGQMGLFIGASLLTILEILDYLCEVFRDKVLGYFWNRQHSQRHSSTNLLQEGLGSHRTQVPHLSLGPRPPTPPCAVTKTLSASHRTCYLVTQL
EXPERIMENTAL_DETAILS: FACS on transiently transfected CHO-K1 cells
PROPERTY_LABEL: binding result

[[record]]
binder = "ASC06-01-IgG1 (antibody, V domains shown, Full length IgG1) VH: QVQLQQSGGGLVQPGGSLRLSCAASGFTFSSYAMSWVRQAPGKGLEWVSAISGSGGSTYYADSVKGRFTISRDNSKNTLYLQMNSLRAEDTAVYYCAKDSYFGYSKGDWGQGTLVTVSS VL: QSALTQPASVSGSPGQSITISCTGTSSDVGAYNYVSWYQQQPGKAPKLMIYGVSNRPSGVSNRFSGSKSGNAASLTISGLQAEDEADYYCSSYTSSSTYVFGTGTKLTVLG"
test_value = "no binding"

[[record]]
binder = "ASC06-02-IgG1 (antibody, V domains shown, Full length IgG1) VH: QVQLQQSGGGLVQPGGSLRLSCAASGFTFSSYAMSWVRQAPGKGLEWVSAISGSGGSTYYADSVKGRFTISRDNSKNTLYLQMNSLRAEDTAVYYCAKDSFFGRAKGSWGQGTLVTVSS VL: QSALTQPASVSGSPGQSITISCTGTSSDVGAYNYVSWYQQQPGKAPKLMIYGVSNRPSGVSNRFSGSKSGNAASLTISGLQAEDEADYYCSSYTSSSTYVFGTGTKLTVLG"
test_value = "no binding"

[[record]]
binder = "ASC06-IgG1 (antibody, V domains shown, Tested as full length IgG1; also called WT antibody ASC06-IgG1; parental ASC06-IgG1 antibody) VH: QVQLQQSGGGLVQPGGSLRLSCAASGFTFSSYAMSWVRQAPGKGLEWVSAISGSGGSTYYADSVKGRFTISRDNSKNTLYLQMNSLRAEDTAVYYCAKDSFYGYSKGDWGQGTLVTVSS VL: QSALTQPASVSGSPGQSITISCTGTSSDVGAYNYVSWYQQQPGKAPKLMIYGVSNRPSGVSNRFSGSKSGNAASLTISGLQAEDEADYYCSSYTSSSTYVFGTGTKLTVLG"
test_value = "no binding"

[[record]]
binder = "ASC06-03-IgG1 (antibody, V domains shown, Full length IgG1) VH: QVQLQQSGGGLVQPGGSLRLSCAASGFTFSSYAMSWVRQAPGKGLEWVSAISGSGGSTYYADSVKGRFTISRDNSKNTLYLQMNSLRAEDTAVYYCAKDSFYGRAKGSWGQGTLVTVSS VL: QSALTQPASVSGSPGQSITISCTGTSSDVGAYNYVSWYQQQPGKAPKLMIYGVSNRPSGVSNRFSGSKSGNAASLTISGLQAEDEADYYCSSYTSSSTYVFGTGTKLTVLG"
test_value = "no binding"

